Taken from paper PMC5358875.

- target: T1, human tankyrase 2 ankyrin repeat cluster 4 (TNKS2 ARC4, residues 488-649) (human, UniProt Q9H2K2 488-649)
- T1 sequence (looked up): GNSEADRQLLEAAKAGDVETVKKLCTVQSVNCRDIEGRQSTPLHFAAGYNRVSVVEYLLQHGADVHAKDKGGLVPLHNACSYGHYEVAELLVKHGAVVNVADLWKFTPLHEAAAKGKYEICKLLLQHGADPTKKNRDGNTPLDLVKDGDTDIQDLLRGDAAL
- assay.info: fluorescence polarisation; direct: TNKS2 ARC4 or TNKS1 ARC2-3 diluted 2-fold serially (40-0 uM, 50 uL) and mixed with TAMRA-labeled peptide (20 nM, 50 uL); 50 mM HEPES pH 7.5, 300 mM NaCl, 2 mM DTT, 0.05% Tween 20; 30 min, 25 C
- condition.notes: both partners purified
pKd: −log10 of the molar value. Ends that are not written are not given here. * marks the point of attachment. 5‑TAMRA = CN(C)c1ccc2c(-c3ccc(C(=O)*)cc3C(=O)[O-])c3ccc(N(C)C)cc3[o+]c2c1; Ahx = NCCCCCC(=O)O
parameter: pKd

binder: {5‑TAMRA-Ahx}-REAGDGEE [T-pep1 (TAMRA-Ahx-REAGDGEE)]
parameter: pKd
quantitative.readout: 6.11
